tested-on: UniProt P24666
Sequence (P24666 whole entry): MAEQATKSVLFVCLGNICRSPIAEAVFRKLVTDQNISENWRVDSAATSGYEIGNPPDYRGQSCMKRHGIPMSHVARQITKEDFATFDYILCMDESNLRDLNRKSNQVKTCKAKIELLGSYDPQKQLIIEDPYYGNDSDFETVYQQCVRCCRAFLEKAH
Type: functional
condition-context: read-out: IC50_Mean
Active and inactive are the calls of the source.
Outcome (select one): active, inactive

O=C(CCc1ccccc1)NNC(=O)c1ccc(NC(=O)c2ccccc2)cc1
inactive
O=C(NNC(=O)c1cc2cc3ccccc3nc2s1)c1cccc(Cl)c1
active
Cc1[nH]c(=O)c(C#N)cc1-c1csc(-c2ccccc2)n1
inactive

For the next question, use this compound.
Request: Identify the outcome logged in this assay for the compound shown: c1ccc(-c2nc(NC3CCCC3)c3ccccc3n2)cc1
Response: active

---

tested-on: Replicative DNA helicase DnaB (Mycobacterium tuberculosis, UniProt P9WMR3)
Sequence (P9WMR3 whole entry): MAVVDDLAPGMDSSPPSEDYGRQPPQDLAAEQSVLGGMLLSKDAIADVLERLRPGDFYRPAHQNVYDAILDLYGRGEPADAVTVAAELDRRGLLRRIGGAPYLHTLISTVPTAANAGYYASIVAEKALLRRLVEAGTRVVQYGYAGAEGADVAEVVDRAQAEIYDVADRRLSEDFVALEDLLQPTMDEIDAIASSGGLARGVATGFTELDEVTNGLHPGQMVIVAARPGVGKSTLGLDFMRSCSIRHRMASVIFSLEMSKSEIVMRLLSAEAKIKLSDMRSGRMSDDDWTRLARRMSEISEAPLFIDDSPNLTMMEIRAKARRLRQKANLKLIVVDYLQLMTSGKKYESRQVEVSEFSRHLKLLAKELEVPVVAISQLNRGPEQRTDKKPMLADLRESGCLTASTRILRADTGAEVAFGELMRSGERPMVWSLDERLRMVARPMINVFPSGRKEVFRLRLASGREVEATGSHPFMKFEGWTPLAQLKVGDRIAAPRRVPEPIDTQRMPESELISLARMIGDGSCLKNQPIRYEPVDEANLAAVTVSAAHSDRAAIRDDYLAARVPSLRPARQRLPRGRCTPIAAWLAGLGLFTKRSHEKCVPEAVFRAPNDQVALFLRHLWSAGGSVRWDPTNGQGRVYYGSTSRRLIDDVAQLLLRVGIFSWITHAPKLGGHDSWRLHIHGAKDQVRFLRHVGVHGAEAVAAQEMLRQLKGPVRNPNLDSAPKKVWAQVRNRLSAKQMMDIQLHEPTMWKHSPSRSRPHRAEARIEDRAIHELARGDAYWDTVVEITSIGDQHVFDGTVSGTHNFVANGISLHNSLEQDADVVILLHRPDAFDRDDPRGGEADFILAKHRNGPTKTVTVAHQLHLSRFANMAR
assay-overview: DnaB intein splicing inhibitors, dose response, biochemical, cell-free fluorescence (AID 449749)
Type: functional
The source made the active and inactive calls.
Outcome (select one): active, inactive

Please review the following examples before continuing.
C/C(CC(=O)Nc1ccccn1)=N\NC(=O)c1ccc(C)cc1
active
Cc1ccc(C2CC(c3cccs3)=NN2C(=O)CCl)cc1 (configuration not stated)
active
CC(=O)OCCN(C)c1cc(SC(C)C)c2nonc2c1[N+](=O)[O-]
inactive

Request: Identify the outcome logged in this assay for the molecule shown: CC(=O)C(Sc1ncnc2c1nnn2-c1ccc(F)cc1)C(=O)N(C)C (configuration not stated)
Response: active

Request: Identify the outcome logged in this assay for the molecule shown: CCOc1cc(C(c2c(C)n[nH]c2O)c2c(C)n[nH]c2O)ccc1OC(=O)c1cccc([N+](=O)[O-])c1
Response: active

Request: Identify the outcome logged in this assay for the molecule shown: COC(=O)CCCCCN1C(=O)/C(=C\c2ccncc2)SC1=S
Response: active

Request: Identify the outcome logged in this assay for the molecule shown: CCOc1ccc(-c2[nH]nc3c2C(c2ccc(O)cc2)C(C#N)=C(N)O3)cc1 (configuration not stated)
Response: active
